tested-target: Macrophage colony-stimulating factor 1 receptor [538-678,753-922] (Homo sapiens)
Construct: 538-678,753-922
procedure-details: cFMs Autophosphorylation Fluorescence Polarization End Point Assay.
test-parameters: pH 7.5; 22 °C
Sequence (P07333 as listed by the source): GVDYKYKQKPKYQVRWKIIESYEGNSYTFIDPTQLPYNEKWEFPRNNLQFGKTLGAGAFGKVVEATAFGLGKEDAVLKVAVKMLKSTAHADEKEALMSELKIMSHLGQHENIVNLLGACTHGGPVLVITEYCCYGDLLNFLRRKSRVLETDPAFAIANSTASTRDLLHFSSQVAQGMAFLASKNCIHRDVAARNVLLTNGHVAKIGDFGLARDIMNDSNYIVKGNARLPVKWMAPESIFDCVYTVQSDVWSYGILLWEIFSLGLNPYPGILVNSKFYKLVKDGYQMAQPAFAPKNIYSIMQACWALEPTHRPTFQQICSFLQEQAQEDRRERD
attribute-measured: IC50 (µM)

I: CN(C)CCNC(=O)N1CCN(Cc2cc(C(F)(F)F)cc(C(F)(F)F)c2)CC1 [JNJ31117164]
II: O=Nc1c(C2C(=O)Nc3ccccc32)[nH]c2ccccc12 (centres undefined) [Indirubin-3 -monoxime]
III: Cc1cc2ncc(-c3ccc(O)c(O)c3)nc2cc1C
Parameters: sort_field (IC50), sort_dir (desc). Form entry: labels listed in requested order.
III, II, I
(III: 8.3 µM, II: 4.5 µM, I: 1.3 µM)

----------
tested-target: Macrophage colony-stimulating factor 1 receptor [538-678,753-922] (Homo sapiens)
Construct: 538-678,753-922
procedure-details: cFMs Autophosphorylation Fluorescence Polarization End Point Assay.
test-parameters: pH 7.5; 22 °C
Sequence (P07333 as listed by the source): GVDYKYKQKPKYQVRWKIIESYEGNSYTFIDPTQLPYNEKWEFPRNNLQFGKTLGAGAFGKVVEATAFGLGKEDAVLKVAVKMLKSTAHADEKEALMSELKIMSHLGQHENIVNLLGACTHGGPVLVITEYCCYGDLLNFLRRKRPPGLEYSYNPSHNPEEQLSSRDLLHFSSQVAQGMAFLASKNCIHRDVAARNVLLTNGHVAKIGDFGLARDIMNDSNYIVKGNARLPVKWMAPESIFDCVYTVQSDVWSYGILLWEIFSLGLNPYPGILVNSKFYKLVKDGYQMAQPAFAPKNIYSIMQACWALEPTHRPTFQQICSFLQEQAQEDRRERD
pIC50: −log10 of the molar value.
attribute-measured: pIC50

>>> print(df.to_string())
                                   molecule  readout_value
0  N#C/C(=C\c1ccc(O)c(O)c1)C(N)=S [alpha-Cyano-(3,4-dihydroxy)thiocinnamide]           5.52

I: Cc1cc2ncc(-c3ccc(O)c(O)c3)nc2cc1C
II: O=Nc1c(C2C(=O)Nc3ccccc32)[nH]c2ccccc12 (centres undefined) [Indirubin-3 -monoxime]
III: CN(C)CCNC(=O)N1CCN(Cc2cc(C(F)(F)F)cc(C(F)(F)F)c2)CC1 [JNJ31117164]
Sort ascending by pIC50. Form entry: labels listed in requested order.
I, II, III
